# Test system: CHO
# assay_method_text: Cytotoxicity against CHO cells
# Type: cell-based
# cond: Cricetulus griseus
log10 IC50 values, listed per item
endpoint_name: log10 IC50 (log10 of the value in µM)

- smiles_record: "CCCCCCCCOC(=O)/C(CCC=C(C)C)=C1\\[C@@H](OC(C)=O)C[C@@]2(C)[C@H]1C[C@@H](O)[C@H]1[C@@]3(C)CC[C@@H](O)[C@@H](C)[C@@H]3CC[C@@]12C"
  measurement: 1.97
- smiles_record: "CC(=O)O[C@H]1C[C@@]2(C)[C@@H](C[C@@H](O)[C@H]3[C@@]4(C)CC[C@@H](O)[C@@H](C)[C@@H]4CC[C@@]32C)/C1=C(\\CCC=C(C)C)C(=O)Oc1cc(C)ccc1C"
  measurement: 2.01
- smiles_record: "CC[C@H]1CN2CCc3cc(OC)c(OC)cc3[C@@H]2C[C@@H]1C[C@H]1NCCc2cc(OC)c(OC)cc21"
  measurement: -0.75
- smiles_record: "CC(=O)O[C@H]1C[C@@]2(C)[C@@H](C[C@@H](O)[C@H]3[C@@]4(C)CC[C@@H](O)[C@@H](C)[C@@H]4CC[C@@]32C)/C1=C(\\CCC=C(C)C)C(=O)Oc1ccc(C)cc1C"
  measurement: 2.00
- smiles_record: "CC(=O)O[C@H]1C[C@@]2(C)[C@@H](C[C@@H](O)[C@H]3[C@@]4(C)CC[C@@H](O)[C@@H](C)[C@@H]4CC[C@@]32C)/C1=C(\\CCC=C(C)C)C(=O)Oc1cccc(Cl)c1"
  measurement: 1.94
- smiles_record: "CCOC(=O)/C(CCC=C(C)C)=C1\\[C@@H](OC(C)=O)C[C@@]2(C)[C@H]1C[C@@H](O)[C@H]1[C@@]3(C)CC[C@@H](O)[C@@H](C)[C@@H]3CC[C@@]12C"
  measurement: 1.82
- smiles_record: "CC(=O)O[C@H]1C[C@@]2(C)[C@@H](C[C@@H](O)[C@H]3[C@@]4(C)CC[C@@H](O)[C@@H](C)[C@@H]4CC[C@@]32C)/C1=C(\\CCC=C(C)C)C(=O)Nc1ccccc1"
  measurement: 1.95
- smiles_record: "CC(=O)O[C@H]1C[C@@]2(C)[C@@H](C[C@@H](O)[C@H]3[C@@]4(C)CC[C@@H](O)[C@@H](C)[C@@H]4CC[C@@]32C)/C1=C(\\CCC=C(C)C)C(=O)Oc1cccc(Br)c1"
  measurement: 1.99

----------
Reported IC50 is given for each of the following molecules.
# Tested on: CHO
# assay_method_text: Cytotoxicity against CHO cells
# Format: cell-based
# cond: Cricetulus griseus
endpoint_name: IC50

- smiles_record: "CC(=O)O[C@H]1C[C@@]2(C)[C@@H](C[C@@H](O)[C@H]3[C@@]4(C)CC[C@@H](O)[C@@H](C)[C@@H]4CC[C@@]32C)/C1=C(\\CCC=C(C)C)C(=O)O"
  system: "CHO"
  measurement: "> 194 µM"
- smiles_record: "CCCCCCCCCCCCCCCCOC(=O)/C(CCC=C(C)C)=C1\\[C@@H](OC(C)=O)C[C@@]2(C)[C@H]1C[C@@H](O)[C@H]1[C@@]3(C)CC[C@@H](O)[C@@H](C)[C@@H]3CC[C@@]12C"
  system: "CHO"
  measurement: "> 135 µM"
- smiles_record: "CC(=O)O[C@H]1C[C@@]2(C)[C@@H](C[C@@H](O)[C@H]3[C@@]4(C)CC[C@@H](O)[C@@H](C)[C@@H]4CC[C@@]32C)/C1=C(\\CCC=C(C)C)C(=O)Oc1ccc2ccccc2c1"
  system: "CHO"
  measurement: "> 155 µM"
- smiles_record: "CCCCCCCCCCCCCCOC(=O)/C(CCC=C(C)C)=C1\\[C@@H](OC(C)=O)C[C@@]2(C)[C@H]1C[C@@H](O)[C@H]1[C@@]3(C)CC[C@@H](O)[C@@H](C)[C@@H]3CC[C@@]12C"
  system: "CHO"
  measurement: "> 140 µM"
